Data credit: ChEMBL document CHEMBL1148707

Each entry below carries its reported pKd.
Biological target: Heme oxygenase (Pseudomonas aeruginosa, UniProt O69002)
Sequence (O69002 whole entry): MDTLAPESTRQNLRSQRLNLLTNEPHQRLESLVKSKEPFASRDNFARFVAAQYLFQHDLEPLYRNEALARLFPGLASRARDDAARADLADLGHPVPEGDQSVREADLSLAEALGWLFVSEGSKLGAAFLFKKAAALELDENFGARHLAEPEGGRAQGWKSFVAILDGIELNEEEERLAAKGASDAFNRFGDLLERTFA
Test: Binding affinity to Pseudomonas aeruginosa heme oxygenase
pKd: −log10 of the molar value.
Reported Endpoint: pKd

molecular_string=O=C1C(O)=C/C(=N\c2ccccc2O)c2ccccc21 reported_endpoint=pKd value_observed=4.14
molecular_string=O=C(O)/C=C/C(=O)Nc1ccc(Nc2ccccc2)cc1 reported_endpoint=pKd value_observed=4.70
molecular_string=O=C(Nc1ccc(-c2cn3ccccc3n2)cc1)c1ccccc1[N+](=O)[O-] reported_endpoint=pKd value_observed=5.21

---

Assay: Binding affinity to Neisseria meningitidis heme oxygenase
Each entry below carries its reported Kd.
Reported Endpoint: Kd (µM)

molecular_string=O=C(O)/C=C/C(=O)Nc1ccc(Nc2ccccc2)cc1 value_observed=15.6
molecular_string=CN(C)c1ccc(/C=N/NC(=N)N)cc1 value_observed=22.9
molecular_string=N=C(N/N=C\c1cccnc1)N/N=C\c1cccnc1 value_observed=12.2
molecular_string=O=C1C(O)=C/C(=N\c2ccccc2O)c2ccccc21 value_observed=28.8
molecular_string=O=C(Cc1ccc(Cl)cc1)N/N=C/c1c[nH]c2ccccc12 value_observed=14.1
molecular_string=O=C(Nc1ccc(-c2cn3ccccc3n2)cc1)c1ccccc1[N+](=O)[O-] value_observed=20.9

---

Test system: Neisseria meningitidis
Test: Inhibition of Neisseria meningitidis heme oxygenase-mediated biliveridin production in Escherichia coli BL21 at 1500 uM
Active and inactive are the calls of the source. The rule behind the calls is not given here.
Outcomes: active, inactive

molecular_string=O=C1C(O)=C/C(=N\c2ccccc2O)c2ccccc21 system_name="Neisseria meningitidis" class_name=inactive
molecular_string=N=C(N/N=C\c1cccnc1)N/N=C\c1cccnc1 system_name="Neisseria meningitidis" class_name=active
molecular_string=O=C(Nc1ccc(-c2cn3ccccc3n2)cc1)c1ccccc1[N+](=O)[O-] system_name="Neisseria meningitidis" class_name=active
molecular_string=O=C(NNC(=O)c1ccncc1)c1ccncc1 system_name="Neisseria meningitidis" class_name=inactive
molecular_string=O=C(Cc1ccc(Cl)cc1)N/N=C/c1c[nH]c2ccccc12 system_name="Neisseria meningitidis" class_name=active
molecular_string=CN(C)c1ccc(/C=N/NC(=N)N)cc1 system_name="Neisseria meningitidis" class_name=active
molecular_string=O=C(O)/C=C/C(=O)Nc1ccc(Nc2ccccc2)cc1 system_name="Neisseria meningitidis" class_name=active
